# target_desc: UniProt O15151
# Sequence (O15151 1-125): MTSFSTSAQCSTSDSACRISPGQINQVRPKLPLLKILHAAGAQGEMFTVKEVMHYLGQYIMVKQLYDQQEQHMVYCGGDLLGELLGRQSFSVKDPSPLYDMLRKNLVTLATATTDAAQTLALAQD
# protocol_summary: Competitive fluorescence polarization assay for MDMX
# Assay type: binding
# test_conditions: competitive FP assay, read-out: IC50 (MDMX)
pIC50: −log10 of the molar value. Where a SMILES comes first, the peptide text is derived from it. Bridges are numbered along the chain shown (N, C = ends). [ ]: non-standard residue; d: D form. R8 = C=CCCCCCC[C@@](C)(N)C(=O)O; S5 = C=CCCC[C@](C)(N)C(=O)O; Nle = CCCC[C@H](N)C(=O)O
recorded_endpoint: pIC50

[[record]]
compound = "CCCC[C@H](NC(=O)[C@H](C)NC(=O)[C@H](C)NC(=O)[C@]1(C)CCCC=CCCCCCC[C@@](C)(NC(=O)[C@H](Cc2ccccc2)NC(=O)[C@H](C)NC(=O)[C@H](C)NC(=O)[C@H](C)NC(C)=O)C(=O)N[C@@H](CCC(=O)O)C(=O)N[C@@H](Cc2ccc(O)cc2)C(=O)N[C@@H](Cc2c[nH]c3ccccc23)C(=O)N[C@@H](C)C(=O)N[C@@H](CCC(N)=O)C(=O)N[C@@H](CC(C)C)C(=O)N1)C(=O)N[C@@H](C)C(N)=O [compound 372] (Ac-AAAF[R8]EYWAQL[S5]AA[Nle]A-NH2; staple 5-12)"
experimental_result = "6.00 to 7.00"


From here, focus on the item given below.
Which pIC50 value is on record for CC(=O)N[C@@H](CC(C)C)C(=O)N[C@H](C(=O)N[C@@H](Cc1ccccc1)C(=O)N[C@]1(C)CCCCCCC=CCCC[C@@](C)(C(=O)N[C@@H](C)C(=O)N[C@@H](C)C(=O)NC(C)(C)C(=O)N[C@@H](C)C(N)=O)NC(=O)[C@H](CC(C)C)NC(=O)[C@H](CCC(N)=O)NC(=O)[C@H](C)NC(=O)[C@H](Cc2c[nH]c3ccccc23)NC(=O)[C@H](Cc2ccc(O)cc2)NC(=O)[C@H](C)NC1=O)[C@@H](C)O (single isomer, unassigned) [compound 232] ?
6.00 to 7.00

----------
# target_desc: UniProtKB O15151
# Sequence (O15151 1-125): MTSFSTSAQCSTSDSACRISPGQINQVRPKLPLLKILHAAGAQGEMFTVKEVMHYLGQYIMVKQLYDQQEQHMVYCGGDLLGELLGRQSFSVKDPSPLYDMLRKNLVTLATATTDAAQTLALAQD
# protocol_summary: Competitive fluorescence polarization assay for MDMX
# Format: binding
# test_conditions: competitive FP assay, read-out: Ki (MDMX)
Where a SMILES comes first, the peptide text is derived from it. Bridges are numbered along the chain shown (N, C = ends). [ ]: non-standard residue; d: D form. R8 = C=CCCCCCC[C@@](C)(N)C(=O)O; Cha = N[C@@H](CC1CCCCC1)C(=O)O; S5 = C=CCCC[C@](C)(N)C(=O)O; Nle = CCCC[C@H](N)C(=O)O
recorded_endpoint: Ki

Use these answered entries as a reference point.
[[record]]
compound = "CCCC[C@H](NC(=O)[C@H](Cc1c[nH]c2ccccc12)NC(=O)[C@H](C)NC(=O)[C@]1(C)CCCC=CCCCCCC[C@@](C)(NC(=O)[C@H](Cc2ccccc2)NC(=O)[C@@H](NC(=O)[C@H](CC(C)C)NC(C)=O)[C@@H](C)O)C(=O)N[C@@H](CCC(=O)O)C(=O)N[C@@H](Cc2ccc(O)cc2)C(=O)N[C@@H](Cc2c[nH]c3ccccc23)C(=O)N[C@@H](C)C(=O)N[C@@H](CCC(N)=O)C(=O)N[C@@H](CC(C)C)C(=O)N1)C(=O)N[C@H](C)C(N)=O [compound 277] (Ac-LTF[R8]EYWAQL[S5]AW[Nle][dA]-NH2; staple 4-11)"
experimental_result = "< 10 nM"

[[record]]
compound = "CC(=O)N[C@@H](CC(C)C)C(=O)N[C@H](C(=O)N[C@@H](Cc1ccccc1)C(=O)N[C@]1(C)CCCCCCC=CCCC[C@@](C)(C(=O)N[C@@H](CO)C(=O)N[C@@H](CO)C(=O)N[C@H](C)C(N)=O)NC(=O)[C@H](CC(C)C)NC(=O)[C@H](CCC(N)=O)NC(=O)[C@H](C)NC(=O)[C@H](Cc2c[nH]c3ccccc23)NC(=O)[C@H](Cc2ccc(O)cc2)NC(=O)[C@H](C(C)C)NC1=O)[C@@H](C)O [compound 133] (Ac-LTF[R8]VYWAQL[S5]SS[dA]-NH2; staple 4-11)"
experimental_result = "10 to 100 nM"

[[record]]
compound = "CC(=O)N[C@@H](Cc1ccccc1)C(=O)N[C@]1(C)CCCCCCC=CCCC[C@@](C)(C(=O)N[C@@H](Cc2c[nH]cn2)C(=O)N[C@@H](CCCNC(=N)N)C(=O)N[C@@H](Cc2ccccc2)C(=O)N[C@@H](CC2CCCCC2)C(N)=O)NC(=O)[C@H](CC(C)C)NC(=O)[C@H](CCC(N)=O)NC(=O)[C@H](Cc2c[nH]cn2)NC(=O)[C@H](Cc2c[nH]c3ccccc23)NC(=O)[C@H](Cc2c[nH]cn2)NC(=O)[C@H](Cc2c[nH]cn2)NC1=O [compound 55] (Ac-F[R8]HHWHQL[S5]HRF[Cha]-NH2; staple 2-9)"
experimental_result = "100 to 1000 nM"


Which Ki value is on record for `CCCC[C@H](NC(=O)[C@H](C)NC(=O)[C@H](C)NC(=O)[C@]1(C)CCC/C=C/CCCCCC[C@@](C)(NC(=O)[C@H](Cc2ccccc2)NC(=O)[C@@H](NC(=O)[C@H](CC(C)C)NC(C)=O)[C@@H](C)O)C(=O)N[C@@H](C)C(=O)N[C@@H](Cc2ccc(O)cc2)C(=O)N[C@@](C)(Cc2c[nH]c3ccccc23)C(=O)N[C@@H](C)C(=O)N[C@@H](CCC(N)=O)C(=O)N[C@@H](CC(C)C)C(=O)N1)C(=O)N[C@@H](C)C(N)=O` ?
< 10 nM

----------
Measured pIC50, listed per entry.
# target_desc: MDMX (Homo sapiens, UniProt O15151)
# protocol_summary: Competitive fluorescence polarization assay for MDMX
# Assay type: binding
# test_conditions: competitive FP assay, read-out: IC50 (MDMX)
pIC50: −log10 of the molar value. Where a SMILES comes first, the peptide text is derived from it. Bridges are numbered along the chain shown (N, C = ends). [ ]: non-standard residue; d: D form. Phe(4-COOH) = N[C@@H](Cc1ccc(C(=O)O)cc1)C(=O)O; R8 = C=CCCCCCC[C@@](C)(N)C(=O)O; Cba = N[C@@H](CC1CCC1)C(=O)O; S5 = C=CCCC[C@](C)(N)C(=O)O; Nle = CCCC[C@H](N)C(=O)O; Ac3c = NC1(C(=O)O)CC1; Aib = CC(C)(N)C(=O)O

Use these answered entries as a reference point.
[[record]]
compound = "CC(=O)N[C@@H](Cc1ccccc1)C(=O)N[C@]1(C)CCCCCCC=CCCC[C@@](C)(C(=O)N[C@@H](CCCNC(=N)N)C(=O)N[C@@H](CCCNC(=N)N)C(=O)N[C@@H](CC(=O)O)C(=O)N[C@@H](C)C(N)=O)NC(=O)[C@H](CC(C)C)NC(=O)[C@H](CCC(N)=O)NC(=O)[C@H](Cc2c[nH]cn2)NC(=O)[C@H](Cc2c[nH]c3ccccc23)NC(=O)[C@H](Cc2c[nH]cn2)NC(=O)[C@H](Cc2c[nH]cn2)NC1=O [compound 54] (Ac-F[R8]HHWHQL[S5]RRDA-NH2; staple 2-9)"
recorded_endpoint = "pIC50"
experimental_result = "6.00 to 7.00"

[[record]]
compound = "CC(=O)N[C@@H](CC(C)C)C(=O)N[C@H](C(=O)N[C@@H](Cc1ccccc1)C(=O)N[C@]1(C)CCCCCCC=CCCC[C@@](C)(C(=O)N[C@@H](CO)C(=O)N[C@@H](C)C(=O)N[C@@H](Cc2ccccc2)C(N)=O)NC(=O)[C@H](CC2CCC2)NC(=O)[C@H](CCC(N)=O)NC(=O)[C@H](C)NC(=O)[C@H](Cc2c[nH]c3ccccc23)NC(=O)[C@H](Cc2ccc(C(=O)O)cc2)NC(=O)[C@H](C)NC1=O)[C@@H](C)O [compound 260] (Ac-LTF[R8]A[Phe(4-COOH)]WAQ[Cba][S5]SAF-NH2; staple 4-11)"
recorded_endpoint = "pIC50"
experimental_result = "7.00 to 8.00"

[[record]]
compound = "CC[C@H](C)[C@H](NC(=O)[C@H](C)NC(=O)[C@H](C)NC(=O)[C@]1(C)CCCC=CCCCCCC[C@@](C)(NC(=O)[C@H](Cc2ccccc2)NC(=O)[C@@H](NC(=O)[C@H](CC(C)C)NC(C)=O)[C@@H](C)O)C(=O)N[C@@H](C)C(=O)N[C@@H](Cc2ccc(O)cc2)C(=O)N[C@@H](Cc2c[nH]c3ccccc23)C(=O)N[C@@H](C)C(=O)N[C@@H](CCC(N)=O)C(=O)N[C@@H](CC(C)C)C(=O)N1)C(=O)N[C@H](C)C(N)=O (single isomer, unassigned)"
recorded_endpoint = "pIC50"
experimental_result = "6.00 to 7.00"

[[record]]
compound = "CC(=O)N[C@@H](CC(C)C)C(=O)N[C@H](C(=O)N[C@@H](Cc1ccccc1)C(=O)N[C@]1(C)CCCCCCC=CCCC[C@@](C)(C(=O)N[C@@H](Cc2c[nH]cn2)C(=O)N[C@@H](Cc2c[nH]cn2)C(=O)N[C@@H](CC(C)C)C(=O)N[C@H](C)C(N)=O)NC(=O)[C@H](CC(C)C)NC(=O)[C@H](CCC(N)=O)NC(=O)[C@H](C)NC(=O)[C@H](Cc2c[nH]c3ccccc23)NC(=O)[C@H](Cc2ccc(O)cc2)NC(=O)[C@H](C)NC1=O)[C@@H](C)O [compound 43] (Ac-LTF[R8]AYWAQL[S5]HHL[dA]-NH2; staple 4-11)"
recorded_endpoint = "pIC50"
experimental_result = "7.00 to 8.00"

[[record]]
compound = "CCCC[C@H](NC(=O)[C@H](C)NC(=O)[C@H](C)NC(=O)[C@]1(C)CCCC=CCCCCCC[C@@](C)(NC(=O)[C@H](Cc2ccccc2)NC(=O)[C@@H](NC(=O)[C@H](CC(C)C)NC(C)=O)[C@@H](C)O)C(=O)N[C@@H](C)C(=O)N[C@@H](Cc2ccc(O)cc2)C(=O)N[C@@H](Cc2c[nH]c3ccccc23)C(=O)N[C@@H](CO)C(=O)N[C@@H](CCC(N)=O)C(=O)N[C@@H](CC(C)C)C(=O)N1)C(=O)N[C@@H](C)C(N)=O [compound 306] (Ac-LTF[R8]AYWSQL[S5]AA[Nle]A-NH2; staple 4-11)"
recorded_endpoint = "pIC50"
experimental_result = "6.00 to 7.00"

[[record]]
compound = "CC(=O)N[C@@H](Cc1ccccc1)C(=O)N[C@]1(C)CCCCCCC=CCCC[C@@](C)(C(=O)N[C@@H](C)C(=O)N[C@@H](C)C(=O)NC(C)(C)C(N)=O)NC(=O)[C@H](CC(C)C)NC(=O)C2(CC2)NC(=O)[C@H](CCC(=O)O)NC(=O)[C@H](Cc2c[nH]c3ccccc23)NC(=O)[C@H](Cc2ccc(O)cc2)NC(=O)[C@H](C)NC1=O [compound 22] (Ac-F[R8]AYWE[Ac3c]L[S5]AA[Aib]-NH2; staple 2-9)"
recorded_endpoint = "pIC50"
experimental_result = "7.00 to 8.00"


From here, focus on the item given below.
Which pIC50 value is on record for CC(=O)N[C@@H](CC(C)C)C(=O)N[C@H](C(=O)N[C@@H](Cc1ccc(F)c(F)c1)C(=O)N[C@]1(C)CCCCCCC=CCCC[C@@](C)(C(=O)N[C@@H](CO)C(=O)N[C@@H](C)C(=O)N[C@@H](C)C(N)=O)NC(=O)[C@H](CC2CCC2)NC(=O)[C@H](CCC(N)=O)NC(=O)[C@H](C)NC(=O)[C@H](Cc2c[nH]c3ccccc23)NC(=O)[C@H](Cc2ccc(O)cc2)NC(=O)[C@H](CCC(=O)O)NC1=O)[C@@H](C)O (single isomer, unassigned) ?
7.00 to 8.00

Attribution: patent US8927500B2
